Source of measurements: patent US20220119451A1

Listed below: pKd values for each entry.
- target or test system: T1, recombinant human PD-L1 extracellular domain (ECD) protein (cat #FCL0784B, G&P Biosciences) (human, UniProt Q9NZQ7 19-238)
- T1 construct: extracellular domain; Bought protein; also called hPD-L1 protein; human PD-L1 protein
- T1 sequence (Q9NZQ7 19-238): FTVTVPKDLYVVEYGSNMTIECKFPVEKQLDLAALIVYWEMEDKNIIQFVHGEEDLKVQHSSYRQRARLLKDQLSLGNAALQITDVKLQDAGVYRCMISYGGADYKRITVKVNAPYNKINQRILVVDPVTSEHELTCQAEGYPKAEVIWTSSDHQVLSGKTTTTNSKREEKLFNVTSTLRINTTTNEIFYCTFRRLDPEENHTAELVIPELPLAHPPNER
- test summary: SPR, PD-L1 immobilised
pKd: −log10 of the molar value. Positions of bridges follow the written chain, without caps; N, C: chain ends. No end group written: not given here.
quantity measured: pKd

binder: WHRSYYTWN (Truncated form of CLP002 (9 residues)) [CLP2TR3]
reported: 6.59
//
binder: CHRSYYTWNLNC (disulfide 1-12, Cyclic variant of CLP002) [CLP2C14]
reported: 8.56
//
binder: CHRSYYCWNLNT (disulfide 1-7, Cyclic variant of CLP002) [CLP2C21]
reported: 6.91
